// data source = paper PMC12177781

Recorded measurements of pIC50, one per entry
tested-system: T. brucei cathepsin L-like protease (TbrCATL) (Trypanosoma brucei rhodesiense, UniProt Q95PM0)
Sequence (Q95PM0 1-450): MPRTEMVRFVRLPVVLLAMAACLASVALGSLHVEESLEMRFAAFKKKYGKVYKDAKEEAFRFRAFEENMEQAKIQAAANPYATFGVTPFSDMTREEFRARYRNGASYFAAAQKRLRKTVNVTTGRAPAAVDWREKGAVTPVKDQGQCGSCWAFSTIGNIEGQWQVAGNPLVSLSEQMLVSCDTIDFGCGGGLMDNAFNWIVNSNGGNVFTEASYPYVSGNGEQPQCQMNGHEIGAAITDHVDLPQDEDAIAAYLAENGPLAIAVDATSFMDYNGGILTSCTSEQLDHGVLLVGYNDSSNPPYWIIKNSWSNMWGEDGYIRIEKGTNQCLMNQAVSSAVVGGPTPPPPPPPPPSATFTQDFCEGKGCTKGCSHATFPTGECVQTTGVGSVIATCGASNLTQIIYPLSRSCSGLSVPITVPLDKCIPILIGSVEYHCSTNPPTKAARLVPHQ
method-summary: TbrCATL inhibition assay, Z-FR-AMC substrate
Format: biochemical
assay-setup: mean ± SD, two experiments in triplicate (n = 6); read-out: IC50 TbrCATL
The scale used: pIC50 is minus the common logarithm of the concentration in molar units.

Sample answers from the record:
>>> value_reported("C/C(=N\\Nc1nc(C)cs1)c1cccc([N+](=O)[O-])c1 [SC5]")
7.08
>>> value_reported("C/C(=N\\NC(N)=S)c1ccc(Br)cc1 [SO3]")
8.13

// query Give a short answer stating reported pIC50 for C/C(=N\NC(N)=S)c1cccc([N+](=O)[O-])c1 [SO5] .
// result 8.23

###

method-summary: in vitro
assay-setup: human, CC50 HepG2 (μM)
measured-quantity: CC50 (µM)
Please reply with the bare figure in µM and do not write the unit itself.

// worked examples, CC50 included
>>> value_reported("C/C(=N\\Nc1nc(C)c[se]1)c1cccc([N+](=O)[O-])c1")
11.3
>>> value_reported("C/C(=N\\NC(N)=[Se])c1cccc([N+](=O)[O-])c1")
5.54
>>> value_reported("C/C(=N\\Nc1nc(C)c[se]1)c1ccc(Br)cc1")
4.68

// query Let me know recorded CC50 for "C/C(=N\Nc1nc(C)c[se]1)c1ccc(C)cc1" , thanks.
// result 11

// query Kindly indicate its recorded CC50. Item: "C/C(=N\NC(N)=[Se])c1ccc(C)cc1"
// result 4.17

// query Please indicate CC50 recorded for "C/C(=N\NC(N)=[Se])c1ccc(Br)cc1"
// result 2.82

###

Test system: HepG2 cells
method-summary: HepG2 cytotoxicity, CellTiter-Glo, 48 h
assay-setup: growth inhibition at 10 µM; ± SD
Measured HepG2 inhibition (%) of individual entries

Illustrative cases are given below, each with its answer.
>>> value_reported("C/C(=N\\Nc1nc(C)cs1)C12CC3CC(CC(C3)C1)C2.Cl [SC11]")
"0 ± 13%"
>>> value_reported("C/C(=N\\Nc1nc(C)c[se]1)C12CC3CC(CC(C3)C1)C2 [SeC11]")
"66 ± 2%"
>>> value_reported("COc1ccc(C(C)=NNc2nc(C)cs2)cc1.Cl [SC2]")
"6 ± 3%"

// query Provide only the value of recorded HepG2 inhibition (%) for C/C(=N\NC(N)=[Se])C12CC3CC(CC(C3)C1)C2 [SeO11]
// result 66 ± 5%

###

tested-system: human cathepsin L (hCatL) (Homo sapiens, UniProt P07711)
Construct: purchased R&D Systems 952-CY
Sequence (P07711 114-333): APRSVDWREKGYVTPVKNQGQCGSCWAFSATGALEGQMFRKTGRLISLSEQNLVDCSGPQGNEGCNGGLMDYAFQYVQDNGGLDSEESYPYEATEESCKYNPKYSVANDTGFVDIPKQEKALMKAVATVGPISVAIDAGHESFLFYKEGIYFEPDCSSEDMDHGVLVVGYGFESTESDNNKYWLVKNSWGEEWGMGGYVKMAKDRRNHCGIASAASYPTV
method-summary: hCatL inhibition assay, Z-FR-AMC substrate
Format: biochemical
assay-setup: mean ± SD, two experiments in triplicate (n = 6)
# IC50 per entry
State just the number; it will be interpreted in nM.

Some molecules with recorded IC50:
>>> value_reported("C/C(=N\\NC(N)=[Se])c1cccc([N+](=O)[O-])c1 [SeO5]")
0.51
>>> value_reported("C/C(=N\\Nc1nc(C)cs1)c1cccc([N+](=O)[O-])c1 [SC5]")
4070

// query Annotate the molecule C/C(=N\NC(N)=S)c1cccc([N+](=O)[O-])c1 [SO5] with its measured IC50.
// result 20.7

// query Read the entry C/C(=N\NC(N)=[Se])c1ccc(Br)cc1 [SeO3] and write its reported IC50.
// result 9.87

// query Hello, please tell me recorded IC50 for this one: C/C(=N\Nc1nc(C)c[se]1)c1ccc(Br)cc1 [SeC3]
// result 793

// query // fetch IC50 given entry C/C(=N\NC(N)=S)c1ccc(Br)cc1 [SO3]
// result 136

// query Please indicate IC50 recorded for C/C(=N\Nc1nc(C)c[se]1)c1cccc([N+](=O)[O-])c1 [SeC5]
// result 175

// query Quote IC50 reported for C/C(=N\NC(N)=[Se])c1ccc(C)cc1 [SeO1] please.
// result 84.5

###

tested-system: T. brucei cathepsin L-like protease (TbrCATL) (Trypanosoma brucei rhodesiense, UniProt Q95PM0)
method-summary: TbrCATL inhibition assay, Z-FR-AMC substrate
Assay type: biochemical
assay-setup: IC50 hCatL/IC50 TbrCATL
measured-quantity: SI TbrCATL
The response must contain the number and no unit.

Some solved entries appear below for comparison.
>>> value_reported("C/C(=N\\Nc1nc(C)c[se]1)c1ccc(Br)cc1")
4
>>> value_reported("C/C(=N\\Nc1nc(C)c[se]1)c1cccc([N+](=O)[O-])c1")
25

The record that follows has no SI TbrCATL shown yet.
// query Provide SI TbrCATL value for the following compound: "CC(C)C[C@H](NC(=O)[C@H]1O[C@@H]1C(=O)O)C(=O)NCCCCN=C(N)N"
// result 10

###

tested-system: T. brucei cathepsin L-like protease (TbrCATL) (Trypanosoma brucei rhodesiense)
method-summary: TbrCATL inhibition assay, Z-FR-AMC substrate
Format: biochemical
assay-setup: IC50 hCatL/IC50 TbrCATL
Returns Yes if the recorded SI TbrCATL is greater than or equal to 5, and No otherwise.

>>> category_label("C/C(=N\\NC(N)=S)c1ccc(Br)cc1")
"Yes"
>>> category_label("C/C(=N\\NC(N)=[Se])c1ccc(Br)cc1")
"Yes"
>>> category_label("C/C(=N\\NC(N)=[Se])c1cccc([N+](=O)[O-])c1")
"No"
>>> category_label("C/C(=N\\NC(N)=S)c1cccc([N+](=O)[O-])c1")
"No"

// query Decide: is the reported value of SI TbrCATL for "C/C(=N\Nc1nc(C)cs1)c1cccc([N+](=O)[O-])c1" equal to or greater than 5?
// result Yes

###

Listing of entries alongside the reported % inhibited DPPH.
method-summary: DPPH radical scavenging (antioxidant) assay
assay-setup: 0.06 mg/ml, after 2 h; mean ± SEM
The response must be a number in % with no trailing unit.

Some solved cases for reference:
>>> value_reported("C/C(=N\\Nc1nc(C)c[se]1)c1ccc(Br)cc1")
75.67
>>> value_reported("C/C(=N\\Nc1nc(C)cs1)c1ccc(C)cc1")
60.00

// query Fill in % inhibited DPPH for record "C/C(=N\NC(N)=S)c1ccc(C)cc1"
// result 45.00

###

method-summary: HepG2 cytotoxicity, CellTiter-Glo, 48 h
assay-setup: human, HepG2 cells
measured-quantity: CC50 at 48 h (nM)
Just the number please, in nM, no unit attached.

// query Find the measured CC50 at 48 h of CC(C)C[C@H](NC(=O)[C@H](Cc1ccccc1)NC(=O)c1cnccn1)B(O)O [Bortezomib, reference compound] and report it.
// result 15

###

method-summary: DPPH radical scavenging (antioxidant) assay
assay-setup: 0.06 mg/ml, after 2 h; mean ± SEM
Decision: % inhibited DPPH compared against 70%; not below it gives fulfilled, below it gives not fulfilled.

Reference set (10 entries):
>>> category_label("C/C(=N\\Nc1nc(C)cs1)c1cccc([N+](=O)[O-])c1")
"not fulfilled"
>>> category_label("Cc1c(C)c2c(c(C)c1O)CCC(C)(C(=O)O)O2 (centres unmarked) [TRO, Trolox, reference compound]")
"fulfilled"
>>> category_label("C/C(=N\\NC(N)=[Se])c1ccc(Br)cc1")
"fulfilled"
>>> category_label("C/C(=N\\NC(N)=S)c1cccc([N+](=O)[O-])c1")
"not fulfilled"
>>> category_label("C/C(=N\\NC(N)=[Se])c1cccc([N+](=O)[O-])c1")
"fulfilled"
>>> category_label("C/C(=N\\Nc1nc(C)cs1)c1ccc(Br)cc1")
"not fulfilled"
>>> category_label("C/C(=N\\Nc1nc(C)c[se]1)c1cccc([N+](=O)[O-])c1")
"fulfilled"
>>> category_label("O=C1O[C@H]([C@@H](O)CO)C(O)=C1O [ASC, ascorbic acid, reference compound]")
"fulfilled"
>>> category_label("C/C(=N\\NC(N)=S)c1ccc(Br)cc1")
"not fulfilled"
>>> category_label("C/C(=N\\Nc1nc(C)c[se]1)c1ccc(C)cc1")
"fulfilled"

Okay, next one:
// query Confirm if % inhibited DPPH reported for the molecule "C/C(=N\NC(N)=[Se])c1ccc(C)cc1" is 70% or above.
// result fulfilled

###

tested-system: T. brucei cathepsin L-like protease (TbrCATL) (Trypanosoma brucei rhodesiense)
method-summary: TbrCATL inhibition assay, Z-FR-AMC substrate
Format: biochemical
assay-setup: at 10 μM
Protocol: All experiments were performed in a 384-well black microplate, using a Synergy HTX (Biotek) plate reader at 25 °C with absorption/emission wavelengths of 360/460 nm. Assays were performed in triplicate wells and DMSO was used as a vehicle control. Enzyme activity was measured and normalized to DMSO controls, and the inhibitor E-64 (10 μM) was used as a positive control for all assays. […] IC50 values were determined through nonlinear regression. […]
Measured TbrCATL inhibition (%) of individual entries
Please respond with the number in % and leave the unit unwritten.

Please review the entries below; each comes with its answer.
>>> value_reported("C/C(=N\\Nc1nc(C)c[se]1)c1ccc(Br)cc1")
101.02
>>> value_reported("C/C(=N\\Nc1nc(C)c[se]1)c1ccc(C)cc1")
51.07
>>> value_reported("C/C(=N\\NC(N)=[Se])c1ccc(C)cc1")
97.08
>>> value_reported("C/C(=N\\Nc1nc(C)c[se]1)c1cccc([N+](=O)[O-])c1")
98.02
>>> value_reported("C/C(=N\\NC(N)=S)c1ccc(Br)cc1")
95.54

Could you now consider this next molecule?
// query Output TbrCATL inhibition (%) of "C/C(=N\NC(N)=[Se])c1cccc([N+](=O)[O-])c1"
// result 101.47
